B1: Receptor-interacting serine/threonine-protein kinase 2, residues 438 to 518; numbered along this chain, O43353 (parent)
chain: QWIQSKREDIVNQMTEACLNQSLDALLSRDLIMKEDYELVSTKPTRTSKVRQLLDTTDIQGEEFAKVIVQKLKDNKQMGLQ

- Variants of: B1
- PROTOCOL SUMMARY: abundance fitness (aPCA) (normalised: wild type 0, dead -1); higher = more abundant; growth selection in yeast, the domain comes from the species named
- REPORTED CONDITIONS: Homo sapiens
Class Y: abundance fitness at least -0.2. Class N: abundance fitness below -0.2.

Worked cases, answers included:
CHAIN	ASSIGNED LABEL
QWIQSKREDIVNQMTEACLNQSLDALLSRDLIMKEDYELVSTKPTRTSTVRQLLDTTDIQGEEFAKVIVQKLKDNKQMGLQ [K49T]	N
QWIQSKREDIVNQMTEACLNQSLDALLSRDLIMKEDYELVSTKPTRTSKVRQLLDTTDIQGTEFAKVIVQKLKDNKQMGLQ [E62T]	N
QWIQSKREDIVNQMTEACLNQSLDALLSRDLIMKEDYELVSTKPTRTSKVRQLLDTTDIQGEEFAKVIVQFLKDNKQMGLQ [K71F]	N
QWIQSKREDIVNQMTEACLNQSLDALLSRDLIMKEDYELVSTKPTRTSKVRQLLDTTDIQGEEFAKVIVQKLKDRKQMGLQ [N75R]	N
QWIQSKREDIVNQMTEACLNQRLDALLSRDLIMKEDYELVSTKPTRTSKVRQLLDTTDIQGEEFAKVIVQKLKDNKQMGLQ [S22R]	N
QWIQSKREDIVNQMTEACLNQSLDALLSRDLIMKEYYELVSTKPTRTSKVRQLLDTTDIQGEEFAKVIVQKLKDNKQMGLQ [D36Y]	N
QWIQSKREDIVNQMTEACLNQSLDALLSRDLIMKEDYELVSTKPTRTSKVRQLLDTTDIQGEEFQKVIVQKLKDNKQMGLQ [A65Q]	N
QWIQSKREDIVNQMTEACLNQGLDALLSRDLIMKEDYELVSTKPTRTSKVRQLLDTTDIQGEEFAKVIVQKLKDNKQMGLQ [S22G]	N

Query: Is the recorded value of abundance fitness equal to or greater than -0.2 for this variant? QWIQSKREDIVNQMTEACLNQSLDALLSRDLIMKEDYELVSTKPTRPSKVRQLLDTTDIQGEEFAKVIVQKLKDNKQMGLQ [T47P]
Result: N
